Target Entity: phosphorylated active hERK2 enzyme (Homo sapiens (Human), UniProt P28482)
Sequence (P28482 whole entry): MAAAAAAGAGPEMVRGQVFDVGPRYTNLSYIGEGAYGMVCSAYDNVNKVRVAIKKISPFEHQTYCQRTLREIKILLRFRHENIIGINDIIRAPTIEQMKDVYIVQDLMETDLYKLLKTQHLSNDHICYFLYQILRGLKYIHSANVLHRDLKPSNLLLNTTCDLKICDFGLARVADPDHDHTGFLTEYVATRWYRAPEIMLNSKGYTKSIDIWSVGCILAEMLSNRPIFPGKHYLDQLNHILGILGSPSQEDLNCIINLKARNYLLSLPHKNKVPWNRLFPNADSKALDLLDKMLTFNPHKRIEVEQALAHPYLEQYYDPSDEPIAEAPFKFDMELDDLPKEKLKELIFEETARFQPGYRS
Test Protocol: Active Human ERK2 (hERK2) Activity Assay (IMAP-FP)
Type: biochemical
Experimental Parameters: Table 6, 0.5 nM hERK2, 30 μM ATP, 10 point titration, read-out: AERK2 IC50
pIC50: −log10 of the molar value.
Property Measured: pIC50

COC[C@@H](NC(=O)Nc1cc2[nH]nc(NCC3CC(C(C)(C)O)C3)c2cn1)c1ccccc1 (stereo partly shown) [Example 182]: 8.59
C[C@@H](NC(=O)Nc1cc2[nH]nc(N[C@H](C)C(F)F)c2cn1)c1ccccc1 [Example 355]: 8.54

1: COC(=O)Nc1n[nH]c2cc(NC(=O)N[C@H](C)c3ccc(F)c(Cl)c3)ncc12 [Example 300]
2: CCNc1n[nH]c2cc(NC(=O)N[C@H](C)c3ccccc3)nc(CO)c12 [Example 70]
Pick one: 1 or 2 . Which one has the lower reported pIC50? Record your answer as the label of the chosen record. 1
